These entries and their values trace back to patent US20210255193A1.

test-system: KIAA1967 DBIRD complex subunit KIAA1967 (Homo sapiens, UniProt Q8N163)
Construct: isoTOP-ABPP experiments performed in cell lysates (in vitro); endogenous in cells; host or cells: soluble proteome of human cancer cell lines (MDA-MB-231; Ramos and Jurkat also prepared)
Sequence (Q8N163 whole entry, one chain of several): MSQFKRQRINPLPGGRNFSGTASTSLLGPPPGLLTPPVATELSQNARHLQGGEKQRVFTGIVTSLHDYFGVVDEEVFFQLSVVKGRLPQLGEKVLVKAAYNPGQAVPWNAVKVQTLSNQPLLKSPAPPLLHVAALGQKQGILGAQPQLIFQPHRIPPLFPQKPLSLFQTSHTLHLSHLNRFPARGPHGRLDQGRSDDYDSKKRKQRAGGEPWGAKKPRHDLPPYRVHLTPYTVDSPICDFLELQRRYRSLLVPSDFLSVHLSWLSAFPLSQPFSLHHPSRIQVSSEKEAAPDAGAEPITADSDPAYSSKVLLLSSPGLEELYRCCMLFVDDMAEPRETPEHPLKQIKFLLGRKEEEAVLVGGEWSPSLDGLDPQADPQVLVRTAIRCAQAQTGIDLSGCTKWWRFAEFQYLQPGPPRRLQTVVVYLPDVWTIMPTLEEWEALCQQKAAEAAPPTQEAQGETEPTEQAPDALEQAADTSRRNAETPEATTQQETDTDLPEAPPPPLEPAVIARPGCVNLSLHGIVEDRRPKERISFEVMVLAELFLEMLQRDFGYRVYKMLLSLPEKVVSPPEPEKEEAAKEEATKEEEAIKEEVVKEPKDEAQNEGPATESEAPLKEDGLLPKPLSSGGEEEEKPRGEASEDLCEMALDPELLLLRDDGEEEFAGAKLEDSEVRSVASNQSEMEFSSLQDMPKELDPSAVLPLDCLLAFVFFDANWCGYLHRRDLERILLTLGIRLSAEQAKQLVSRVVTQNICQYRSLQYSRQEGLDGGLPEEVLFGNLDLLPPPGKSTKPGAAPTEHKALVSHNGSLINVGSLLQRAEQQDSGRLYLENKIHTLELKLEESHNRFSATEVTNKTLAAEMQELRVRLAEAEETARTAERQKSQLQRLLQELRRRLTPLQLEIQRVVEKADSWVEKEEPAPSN
test-name: competitive isoTOP-ABPP
Format: binding
condition-context: 50 uM, in vitro, sol, 231
metric: isoTOP-ABPP ratio (R) at liganded lysine Q8N163_K97
Answer with a bare number; do not write a unit.

What does the data say about its isoTOP-ABPP ratio (R) at liganded lysine Q8N163_K97? Entry: CC(=O)Oc1ccc([N+](=O)[O-])cc1[N+](=O)[O-] [fragment 43, 2,4-Dinitrophenyl acetate] 0.9

Now try O=C(Oc1ccc([N+](=O)[O-])cc1[N+](=O)[O-])C(c1ccccc1)(c1ccccc1)c1ccccc1 [fragment 42, 2,4-Dinitrophenyl 2,2,2-triphenylacetate] . 1.0

And for O=C(Oc1ccc([N+](=O)[O-])cc1[N+](=O)[O-])c1ccc(-c2ccccc2)cc1 ? 1.0

* * *

test-system: MAP1LC3B Microtubule-associated proteins 1A/1B light chain (Homo sapiens, UniProt Q9GZQ8)
Construct: isoTOP-ABPP experiments performed in cell lysates (in vitro); endogenous in cells; host or cells: soluble proteome of human cancer cell lines (MDA-MB-231; Ramos and Jurkat also prepared)
test-name: competitive isoTOP-ABPP
Type: binding
Design: key: R = MS1 peak area ratio, DMSO (heavy) / compound-treated (light)
condition-context: 50 uM, 231 sol, in vitro
Friendly reminder: isoTOP-ABPP reactivity ratio at lysine Q9GZQ8_K51 below 1 is Yes, at or above is No.

# check: isoTOP-ABPP reactivity ratio at lysine Q9GZQ8_K51 < 1 for O=C(Oc1ccc([N+](=O)[O-])cc1[N+](=O)[O-])C(c1ccccc1)c1ccccc1 [fragment 30, 2,4-Dinitrophenyl 2,2-diphenylacetate] No

Try O=C(Oc1c(F)c(F)c(F)c(F)c1F)c1ccc2ccccc2n1 next. Yes

Entry COc1cc(CCC(=O)Oc2ccc([N+](=O)[O-])cc2[N+](=O)[O-])cc(OC)c1OC please Yes

Do the same for O=C(CCc1cn(-c2ccccc2)nc1-c1ccccc1)Oc1ccc([N+](=O)[O-])cc1[N+](=O)[O-] please Yes

Now consider O=C(Oc1c(F)c(F)c(F)c(F)c1F)C1CCN(C(=O)OCc2ccccc2)CC1 and answer again. No

Note, next up: O=C(Oc1ccc([N+](=O)[O-])cc1[N+](=O)[O-])c1cc(C(F)(F)F)cc(C(F)(F)F)c1 No

Also O=C(CCc1coc2cc(F)ccc2c1=O)Oc1c(F)c(F)c(F)c(F)c1F ? No

Likewise for Cn1cc(CC(=O)Oc2ccc([N+](=O)[O-])cc2[N+](=O)[O-])c2ccccc21 ? Yes

* * *

test-system: NLN Neurolysin, mitochondrial (Homo sapiens, UniProt Q9BYT8)
Construct: isoTOP-ABPP experiments performed in cell lysates (in vitro); endogenous in cells; host or cells: soluble proteome of human cancer cell lines (MDA-MB-231; Ramos and Jurkat also prepared)
Sequence (Q9BYT8 38-704): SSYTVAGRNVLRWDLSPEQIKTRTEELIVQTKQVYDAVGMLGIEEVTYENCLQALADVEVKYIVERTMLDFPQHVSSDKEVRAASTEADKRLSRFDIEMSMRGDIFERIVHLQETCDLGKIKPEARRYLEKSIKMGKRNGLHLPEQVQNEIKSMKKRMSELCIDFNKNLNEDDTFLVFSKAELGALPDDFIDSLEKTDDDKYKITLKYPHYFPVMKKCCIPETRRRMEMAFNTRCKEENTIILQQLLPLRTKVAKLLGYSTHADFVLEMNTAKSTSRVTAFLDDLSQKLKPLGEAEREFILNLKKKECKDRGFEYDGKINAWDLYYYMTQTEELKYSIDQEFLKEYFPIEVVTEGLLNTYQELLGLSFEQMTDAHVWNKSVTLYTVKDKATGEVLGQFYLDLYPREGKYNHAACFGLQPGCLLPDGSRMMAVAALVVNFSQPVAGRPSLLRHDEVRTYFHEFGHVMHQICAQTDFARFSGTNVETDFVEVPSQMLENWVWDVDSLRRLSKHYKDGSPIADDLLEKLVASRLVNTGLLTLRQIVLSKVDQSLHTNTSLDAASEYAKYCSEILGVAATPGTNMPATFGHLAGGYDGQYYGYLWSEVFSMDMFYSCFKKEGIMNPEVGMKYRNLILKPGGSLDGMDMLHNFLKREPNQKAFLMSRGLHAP
test-name: competitive isoTOP-ABPP
Type: binding
condition-context: 50 uM, in vitro, sol, 231
I'd appreciate it if you could supply isoTOP-ABPP ratio (R) at liganded lysine Q9BYT8_K253 values for the items below.
Please give the numeric answer without any surrounding text.

# returns recorded isoTOP-ABPP ratio (R) at liganded lysine Q9BYT8_K253 (system: NLN Neurolysin, mitochondrial (Homo sapiens, UniProt Q9BYT8)) for O=C(Oc1ccc([N+](=O)[O-])cc1[N+](=O)[O-])c1ccc(Oc2ccccc2)cc1 [fragment 39, 2,4-Dinitrophenyl 4-phenoxybenzoate] 1.1

Follow-up entry: O=C(Oc1ccc([N+](=O)[O-])cc1[N+](=O)[O-])c1ccccc1Nc1cccc(C(F)(F)F)c1 [fragment 40] 0.9

Entry CC(=O)Oc1ccc([N+](=O)[O-])cc1[N+](=O)[O-] [fragment 43, 2,4-Dinitrophenyl acetate] please 0.8

Also check CC(C)(C)OC(=O)NCCCC(=O)Oc1ccc([N+](=O)[O-])cc1[N+](=O)[O-] [fragment 41] 1.3

Next up: O=C(Oc1ccc([N+](=O)[O-])cc1[N+](=O)[O-])c1ccc(-c2ccccc2)cc1 [fragment 37] 0.9

Repeat with O=C(Oc1ccc([N+](=O)[O-])cc1[N+](=O)[O-])C(c1ccccc1)(c1ccccc1)c1ccccc1 [fragment 42, 2,4-Dinitrophenyl 2,2,2-triphenylacetate] 0.8

Try the compound O=C(Oc1ccc([N+](=O)[O-])cc1[N+](=O)[O-])c1ccc2ccccc2n1 [fragment 35] 1.1

// query: O=C(CC12CC3CC(CC(C3)C1)C2)Oc1ccc([N+](=O)[O-])cc1[N+](=O)[O-] [fragment 38] 0.8
